# Tested on: Enterobacter cloacae IFO 12937
# test-description: MIC by agar dilution method (Experiment C), Enterobacter cloacae IFO 12937
# Format: cell-based
# conditions: IFO12937, Trypticase Soy agar, about 10^8 CFU/ml, 37° C. overnight, read-out: Minimal inhibitory concentration (MIC)
Where a name gives a salt, the structure may show the parent alone.
assay-readout: MIC (µg/mL)

INSERT INTO results (compound, test_system, measured_value) VALUES
  ('COC(=O)[C@H]1[C@@H](NC(=O)/C(=N\OC(C)(C)C(=O)O)c2csc(N)n2)C(=O)N1S(=O)(=O)O (relative stereo) [Example No. 68C, disodium salt]', 'Enterobacter cloacae IFO 12937', 3.13);

P: C=CCO/N=C(\C(=O)N[C@H]1C(=O)N(S(=O)(=O)O)[C@H]1C(=O)OC)c1csc(N)n1 (relative stereo) [Example No. 72C]
Q: CC(=O)NC[C@H]1[C@@H](NC(=O)/C(=N\OC(C)(C)C(=O)O)c2csc(N)n2)C(=O)N1S(=O)(=O)O (relative stereo) [Example No. 147C]
Req: Which value of MIC is numerically greater: that of P or that of Q ? Selection: enter the item's label.
Resp: Q
(Q: 3.13 µg/mL, P: 1.56 µg/mL)
